molecular target: T1, bovine serum albumin (bovine, UniProt P02769 25-607); assay: direct ELISA, BSA coated at 3.3 µg/ml
T1 construct: Control antigen in ELISA; also called BSA
T1 sequence (P02769 25-607 limits assumed): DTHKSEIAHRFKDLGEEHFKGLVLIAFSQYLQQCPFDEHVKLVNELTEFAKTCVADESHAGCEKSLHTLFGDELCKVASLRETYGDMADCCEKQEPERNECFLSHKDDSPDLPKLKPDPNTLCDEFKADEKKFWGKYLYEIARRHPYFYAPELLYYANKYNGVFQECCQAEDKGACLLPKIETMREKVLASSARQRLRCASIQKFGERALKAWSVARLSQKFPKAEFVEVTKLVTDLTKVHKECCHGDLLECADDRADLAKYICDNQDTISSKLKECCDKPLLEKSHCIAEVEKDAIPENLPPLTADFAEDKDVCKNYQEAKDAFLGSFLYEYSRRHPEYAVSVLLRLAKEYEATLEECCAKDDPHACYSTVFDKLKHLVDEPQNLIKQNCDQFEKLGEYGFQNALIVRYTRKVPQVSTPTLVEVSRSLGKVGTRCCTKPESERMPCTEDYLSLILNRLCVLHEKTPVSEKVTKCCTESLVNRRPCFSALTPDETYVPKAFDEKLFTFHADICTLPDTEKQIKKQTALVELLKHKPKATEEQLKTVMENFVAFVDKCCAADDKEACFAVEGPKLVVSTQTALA
recordedEndpoint: binding result

• NI-204.10D12 (antibody, V domains shown) VH: EVQLVESGGDLVRPGGSLRLSCVASGFTFSNYWMHWVRQAPGQRPVWVSRTNTDGRNTAYADYAKGRFTISRDNAKSTLYLQLNSLRAEDTAVYFCARLRRNVADQITHNYYMDVWGKGTLVTVSS VL: EIVLTQSPGSLAVSLGERATINCKSSQTVLYNNKNYLAWYQQKPGQPPKLLISWASSRESGVPDRFSGSGSGTDFTLTISSLQAEDVAVYYCQHYYGTPVTFGGGTKVEIK = no binding
• NI-204.10A8 (antibody, human IgG1, V domains shown) VH: EVQLVESGAEVKEPGSSVRVSCKTSGGSFNRHVITWVRQAPGQGLEWMGEIIPFFGTPKYAPKFQGRVTIIADASTSTFFLDVKSLTSEDTALYFCWIVVVSVVQRREDFWGQGILVTVSS VL: EIVLTQSPSSLSASVGDTVTITCRSSQNISNYLSWFQHKPGKAPRILVYAASTLQTGVPSRFSGRGSGTIFTLSITSLQSEDYATYYCQQNDKIPRTFGQGTKVEIK = no binding
• NI-204.9F6 (antibody, human IgG1, V domains shown, also called NI-209.9F6) VH: EVQLVESGGGLVQPGGSLRLSCAVSGFTFDTFAMSWVRQAPGKGLEWVSAITASSSKTYYADSVKGRFTISRDNSRNTVYLRLSSLRADDTAVYFCARPKGAHSGLYIESAFDLWGPGTMVTVSS VL: SYVLTQPPSVSVSAGQTASITCSADMLGDTYVSWYQKRPGQSPVLLIYQDSKRPSEIPERFSGSSSEDTATLTITGTQALDEAAYYCQVWDRRTTTYVFGPGTEVTVL = no binding
